// data source = patent US5608091A

Listing of entries alongside the reported λ max.
# experimentalDetails: Visible absorption spectrum (λmax, ε)
# Format: physicochemical
# recordedConditions: in chloroform
recordedEndpoint: λ max (nm)

# compound, recordedEndpoint, measurement
rows = [
    ("CCCCCCCCOc1c(F)c2c(c(F)c1Nc1ccc(C#N)cc1)C(=O)c1c(O)ccc(O)c1C2=O [(45)]", "λ max", 524),
    ("O=C1c2c(O)ccc(O)c2C(=O)c2c(F)c(Nc3ccccc3)c(F)c(F)c21 [(1)]", "λ max", 533),
    ("CCCCSc1c(SCCCC)c(SCCCC)c2c(c1SCCCC)C(=O)c1c(O)ccc(O)c1C2=O [(308)]", "λ max", 530),
    ("N#Cc1ccc(Nc2c(F)c(F)c3c(c2F)C(=O)c2c(O)ccc(O)c2C3=O)cc1 [(10)]", "λ max", 523),
]

----------
# experimentalDetails: Color tone of the dye
# Assay type: physicochemical
# recordedConditions: Tables 1-9

# structure, Color tone
records = [
    ("CCCCCCCCOc1c(F)c2c(c(F)c1Nc1ccc([N+](=O)[O-])cc1)C(=O)c1c(O)ccc(O)c1C2=O", "Magenta"),
    ("CC(C)c1cccc(C(C)C)c1Nc1c(F)c2c(c(F)c1Nc1c(C(C)C)cccc1C(C)C)C(=O)c1c(O)ccc(O)c1C2=O", "Cyan"),
    ("CCCCOC(=O)c1ccc(Nc2c(F)c(F)c3c(c2F)C(=O)c2c(O)ccc(O)c2C3=O)cc1", "Magenta"),
    ("CC(C)(C)c1ccc(Nc2c(F)c(F)c3c(c2F)C(=O)c2c(O)ccc(O)c2C3=O)cc1", "Magenta"),
    ("CCCCNc1c(F)c2c(c(NCCCC)c1NCCCC)C(=O)c1c(O)ccc(O)c1C2=O", "Blue"),
    ("CCCCOC(=O)c1ccccc1Nc1c(F)c2c(c(F)c1Nc1ccccc1C(=O)OCCCC)C(=O)c1c(O)ccc(O)c1C2=O", "Blue"),
    ("N#Cc1ccc(Nc2c(F)c3c(c(F)c2Nc2ccc(C#N)cc2)C(=O)c2c(O)ccc(O)c2C3=O)cc1", "Blue"),
    ("CCOC(=O)c1cccc(Nc2c(F)c3c(c(F)c2Nc2cccc(C(=O)OCC)c2)C(=O)c2c(O)ccc(O)c2C3=O)c1", "Cyan"),
    ("O=C1c2c(O)ccc(O)c2C(=O)c2c(F)c(Nc3ccc([N+](=O)[O-])cc3)c(F)c(F)c21", "Magenta"),
    ("CC(C)c1cccc(C(C)C)c1Nc1c(F)c(F)c2c(c1F)C(=O)c1c(O)ccc(O)c1C2=O", "Magenta"),
    ("Nc1c(Sc2ccccc2)c(Sc2ccccc2)c(F)c2c1C(=O)c1c(O)ccc(O)c1C2=O", "Purple"),
    ("COc1ccccc1Nc1c(F)c(F)c2c(c1F)C(=O)c1c(O)ccc(O)c1C2=O", "Purple"),
    ("CCCCSc1c(SCCCC)c(SCCCC)c2c(c1SCCCC)C(=O)c1c(O)ccc(O)c1C2=O", "Magenta"),
    ("CCCCCCCCOC(=O)c1cccc(Nc2c(F)c(F)c3c(c2F)C(=O)c2c(O)ccc(O)c2C3=O)c1", "Magenta"),
]

----------
Attribute: ε
# experimentalDetails: Visible absorption spectrum (λmax, ε)
# Format: physicochemical
# recordedConditions: in chloroform, at λ max; in M-1 cm-1 (unit assumed)

# structure, ε
rows = [
    ("CC(C)(C)c1ccc(Nc2c(F)c3c(c(F)c2Nc2ccc(C(C)(C)C)cc2)C(=O)c2c(O)ccc(O)c2C3=O)cc1", 26700),
    ("COc1ccc(Sc2c(F)c3c(c(F)c2Sc2ccc(OC)cc2)C(=O)c2c(O)ccc(O)c2C3=O)cc1", 15100),
    ("CC(C)(C)Sc1c(F)c2c(c(F)c1SC(C)(C)C)C(=O)c1c(O)ccc(O)c1C2=O", 15300),
    ("N#Cc1c(F)c(F)c(Sc2c(F)c3c(c(F)c2Sc2c(F)c(F)c(C#N)c(F)c2F)C(=O)c2c(O)ccc(O)c2C3=O)c(F)c1F", 13200),
    ("CC(C)(C)c1ccc(Nc2c(F)c(F)c3c(c2F)C(=O)c2c(O)ccc(O)c2C3=O)cc1", 11900),
    ("CC(C)c1cccc(C(C)C)c1Nc1c(F)c2c(c(F)c1Nc1c(C(C)C)cccc1C(C)C)C(=O)c1c(O)ccc(O)c1C2=O", 26000),
    ("Nc1c(Sc2ccccc2)c(Sc2ccccc2)c(F)c2c1C(=O)c1c(O)ccc(O)c1C2=O", 12300),
    ("O=C1c2c(O)ccc(O)c2C(=O)c2c(F)c(Sc3ccccc3)c(Sc3ccccc3)c(F)c21", 12700),
    ("CCCCNc1c(F)c(F)c2c(c1F)C(=O)c1c(O)ccc(O)c1C2=O", 17900),
    ("O=C1c2c(O)ccc(O)c2C(=O)c2c(F)c(Nc3ccccc3)c(F)c(F)c21", 14800),
    ("CCCCCCCCOc1c(F)c2c(c(F)c1Nc1ccc(C(=O)OCCCC)cc1)C(=O)c1c(O)ccc(O)c1C2=O", 12700),
    ("O=C1c2c(O)ccc(O)c2C(=O)c2c(F)c(Oc3ccccc3)c(Nc3c(Cl)cccc3Cl)c(F)c21", 17900),
    ("N#Cc1ccc(Nc2c(F)c3c(c(F)c2Nc2ccc(C#N)cc2)C(=O)c2c(O)ccc(O)c2C3=O)cc1", 16600),
    ("CCCCCCCCOc1c(F)c2c(c(F)c1Nc1c(CC)cccc1CC)C(=O)c1c(O)ccc(O)c1C2=O", 11400),
    ("CCOC(=O)c1cccc(Nc2c(F)c3c(c(F)c2Sc2ccccc2)C(=O)c2c(O)ccc(O)c2C3=O)c1", 17000),
    ("COc1ccccc1Nc1c(F)c(F)c2c(c1F)C(=O)c1c(O)ccc(O)c1C2=O", 15300),
]
